# test target: α1D-AR (Homo sapiens)
# Sequence (P25100 whole entry): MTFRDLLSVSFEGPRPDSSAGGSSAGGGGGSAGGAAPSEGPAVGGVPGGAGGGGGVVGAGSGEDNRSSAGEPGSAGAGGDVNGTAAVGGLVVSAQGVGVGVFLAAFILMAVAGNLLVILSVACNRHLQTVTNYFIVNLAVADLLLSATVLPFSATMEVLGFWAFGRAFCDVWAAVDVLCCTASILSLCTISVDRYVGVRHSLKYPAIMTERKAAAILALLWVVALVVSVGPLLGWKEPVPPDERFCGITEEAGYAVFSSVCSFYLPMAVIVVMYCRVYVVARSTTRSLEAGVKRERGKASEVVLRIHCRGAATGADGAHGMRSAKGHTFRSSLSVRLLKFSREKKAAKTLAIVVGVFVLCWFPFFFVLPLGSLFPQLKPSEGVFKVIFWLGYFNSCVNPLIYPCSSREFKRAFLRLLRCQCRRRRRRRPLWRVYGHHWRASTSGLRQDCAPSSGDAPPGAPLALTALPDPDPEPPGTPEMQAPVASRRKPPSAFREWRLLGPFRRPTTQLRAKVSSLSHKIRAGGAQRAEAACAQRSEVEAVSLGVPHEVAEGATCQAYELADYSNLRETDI
experimental endpoint: Ki
Please answer using a numeric value trailed by its unit.

Identify Ki associated with the molecule CC(C)Cc1c(OCC2=NCCN2)cccc1N(C)S(C)(=O)=O.Cl [Cmpd-3] 30 µM

---

# test target: UniProt:P34969
# Sequence (P34969 1-445 isoform P34969-2): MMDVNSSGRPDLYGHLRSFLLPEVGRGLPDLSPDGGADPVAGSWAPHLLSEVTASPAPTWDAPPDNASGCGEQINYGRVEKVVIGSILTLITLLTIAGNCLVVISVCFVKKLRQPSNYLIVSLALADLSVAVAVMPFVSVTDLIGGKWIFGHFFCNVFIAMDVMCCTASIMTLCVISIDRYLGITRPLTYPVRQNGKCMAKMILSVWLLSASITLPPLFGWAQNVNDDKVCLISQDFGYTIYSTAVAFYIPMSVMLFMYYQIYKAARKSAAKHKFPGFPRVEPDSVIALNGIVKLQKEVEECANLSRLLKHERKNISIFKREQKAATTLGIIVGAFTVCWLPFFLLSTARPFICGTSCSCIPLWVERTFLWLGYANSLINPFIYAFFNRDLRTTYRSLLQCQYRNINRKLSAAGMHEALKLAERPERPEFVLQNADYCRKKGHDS
experimental endpoint: pKi
Please express pKi as -log10 of the molar concentration.

Give reported pKi for CC(C)Cc1c(OCC2=NCCN2)cccc1N(C)S(C)(=O)=O.Cl [Cmpd-3] (UniProt:P34969) 5.22

---

# test target: α1A-AR (Homo sapiens)
# assay text: Total inositol phosphate assay in Rat-1 fibroblasts expressing α1A-AR
# Format: cell-based
# condition summary: compound alone, dose-response
experimental endpoint: intrinsic (basal) agonist activity, inositol phosphate

> print(dat)
                                   compound     readout.value
1  Cc1c(OCC2=NCCN2)ccc(Cl)c1NS(C)(=O)=O [RO115-1240, Dabuzalgron, reference compound]  partial agonists
2  c1ccc(C2CC2)c(OCC2=NCCN2)c1 [cirazoline, reference compound]  partial agonists

---

# test target: α1A-AR (Homo sapiens, UniProt P35348)
# Sequence (P35348 whole entry): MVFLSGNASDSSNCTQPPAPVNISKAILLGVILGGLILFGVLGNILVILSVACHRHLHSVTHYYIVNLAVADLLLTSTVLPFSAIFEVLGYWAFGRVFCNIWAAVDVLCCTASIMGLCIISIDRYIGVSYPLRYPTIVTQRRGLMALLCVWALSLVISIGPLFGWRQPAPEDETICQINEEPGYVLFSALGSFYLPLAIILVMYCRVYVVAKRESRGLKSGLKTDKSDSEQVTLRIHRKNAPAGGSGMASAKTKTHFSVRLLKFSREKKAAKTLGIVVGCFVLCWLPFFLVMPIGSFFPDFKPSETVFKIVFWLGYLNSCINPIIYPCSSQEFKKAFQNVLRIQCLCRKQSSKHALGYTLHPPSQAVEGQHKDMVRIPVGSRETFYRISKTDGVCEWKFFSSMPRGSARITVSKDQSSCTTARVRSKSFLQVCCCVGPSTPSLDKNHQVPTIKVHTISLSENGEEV
# assay text: 3H-NE binding potentiation, membranes from Rat-1 fibroblasts expressing α1A-AR
experimental endpoint: EC50 (nM)
Hi! Could you send only the number? It should be in nM, unit omitted.

Identify EC50 associated with the molecule `CC(C)Cc1c(OCC2=NCCN2)cccc1N(C)S(C)(=O)=O.Cl` 0.1

Values were extracted from paper PMC9762201.
